- study.target: Sialic acid-binding Ig-like lectin 9 (Homo sapiens)
- assay.procedure: Hs-Siglec9 ALPHAscreen SOP 20170721
- Set-up: scale not given: direction of the effect not stated beside the values
- experimental.setup: 10 µM
property.label: Percent Effect
Answer format: number, then unit.

Use these answered entries as a reference point.
[[record]]
compound = "O=C(CC1CN(Cc2ccccc2)CCO1)NC1CCCC1 (stereo unspecified)"
study_target = "Sialic acid-binding Ig-like lectin 9 (Homo sapiens)"
recorded_result = "7.65%"

[[record]]
compound = "COc1cccc(S(=O)(=O)NC2CNC(=O)C2)c1 (stereo unspecified)"
study_target = "Sialic acid-binding Ig-like lectin 9 (Homo sapiens)"
recorded_result = "9.97%"

[[record]]
compound = "O=C(Nc1cc(F)ccc1OCC1CCCO1)c1ccc(O)nc1 (stereo unspecified)"
study_target = "Sialic acid-binding Ig-like lectin 9 (Homo sapiens)"
recorded_result = "-2.88%"

[[record]]
compound = "COc1cccc(COCC(=O)N2CCCC(N3CCCC3)CC2)c1 (stereo unspecified)"
study_target = "Sialic acid-binding Ig-like lectin 9 (Homo sapiens)"
recorded_result = "-2.23%"


# per-item lookup of Percent Effect; items listed below
1. Cn1nc2c(cc1=O)CN(CCc1nc3ccccc3c(=O)[nH]1)CC2
2. CN1CCCN(C(=O)NCc2csc(Br)c2)CC1

Result:
1. -0.89%
2. 13.3%
